Counter-ions that a name gives are not always drawn.
So I've got a bunch of molecules here, and I need their melting point values.

Below: 3 molecules and their reported melting point.
{"molecule": "Cc1cc(F)ccc1CC(C)(C)NCC(O)c1cc(O)cc2c1OCC(=O)N2 (centres unmarked) (as salt: hydrochloride) [Example 11]", "melting point": "278 to 280 °C"}
{"molecule": "CC(C)(Cc1ccc(OCCCC(=O)O)cc1)NCC(O)c1cc(O)cc2c1OCC(=O)N2 (centres unmarked) [Example 16]", "melting point": "201 to 204 °C"}
{"molecule": "Cc1cc(CC(C)(C)NCC(O)c2cc(O)cc3c2OCC(=O)N3)ccc1F (centres unmarked) (as salt: hydrochloride) [Example 10]", "melting point": "278 to 280 °C"}

State recorded melting point for all listed molecules.
1. CC(C)(Cc1ccc(F)cc1F)NCC(O)c1cc(O)cc2c1OCC(=O)N2 (centres unmarked) (as salt: hydrochloride)
2. Cc1cc(C)cc(CC(C)(C)NCC(O)c2cc(O)cc3c2OCC(=O)N3)c1 (centres unmarked) (as salt: hydrochloride) [Example 15]

1: 279 to 280 °C; 2: 235 to 238 °C
